System Name: UniProtKB P17752
Experimental Protocol: Biochemical in vitro assay using fluorescence readout (TPH1 inhibition)
Run Conditions: human TPH1, fluorescence readout
Some compounds, each annotated with its measured IC50.
Readout Type: IC50 (nM)

- Compound: "Cc1nn2c3c(nc2s1)CCN(C(=O)COc1ccc(C(F)(F)F)nc1Cl)C3c1ccc(Cl)nc1F (stereo not drawn) [Example 1.16.4]"
  Readout Type: "IC50"
  Measured: 27
- Compound: "CCc1nc(NS(C)(=O)=O)ccc1OCC(=O)N1CCc2nc3sc(C)nn3c2C1c1ccc(Cl)cc1F (stereo not drawn) [Example 1.4.51]"
  Readout Type: "IC50"
  Measured: 12
- Compound: "Cc1nn2c3c(nc2s1)CCN(C(=O)COc1ccc(NS(C)(=O)=O)nc1Cl)C3c1sc(C(C)C)nc1C (stereo not drawn) [Example 1.73.1]"
  Readout Type: "IC50"
  Measured: 60
- Compound: "Cc1ncc(C2c3c(nc4sc(C)nn34)CCN2C(=O)COc2ccc(C(=O)N(C)C)nc2Cl)s1 (stereo not drawn) [Example 1.59.1]"
  Readout Type: "IC50"
  Measured: 37
- Compound: "Cc1cc(Cl)ccc1OCC(=O)N1CCc2nc3sccn3c2C1c1cc2cccnc2s1 (stereo not drawn) [Example 6.14.2]"
  Readout Type: "IC50"
  Measured: 39
- Compound: "Cc1nn2c3c(nc2s1)CCN(C(=O)COc1ccc(NS(C)(=O)=O)nc1Cl)C3c1ncc(C2CC2)cc1F (stereo not drawn) [Example 1.14.13]"
  Readout Type: "IC50"
  Measured: 7
- Compound: "Cc1nn2c3c(nc2s1)CCN(C(=O)COc1ccc(C(N)=O)nc1Cl)C3c1ccc(Cl)cc1F (stereo not drawn) [Example 1.4.19]"
  Readout Type: "IC50"
  Measured: 5
- Compound: "Cc1nn2c3c(nc2s1)CCN(C(=O)COc1ccc(Cl)cc1C)C3c1cc(CN(C)C)cs1 (stereo not drawn) [Example 1.8.3]"
  Readout Type: "IC50"
  Measured: 95
- Compound: "Cc1nn2c3c(nc2s1)CCN(C(=O)COc1cccnc1Cl)C3c1ccc(C2CC2)cc1F (stereo not drawn) [Example 1.6.11]"
  Readout Type: "IC50"
  Measured: 14
- Compound: "Cc1nn2c3c(nc2s1)CCN(C(=O)COc1ccc(NS(=O)(=O)C2CC2)nc1Cl)C3c1sccc1F (stereo not drawn) [Example 1.23.9]"
  Readout Type: "IC50"
  Measured: 14
- Compound: "Cc1nn2c3c(nc2s1)CCN(C(=O)COc1ccc(C(F)(F)F)nc1Cl)C3c1ccc(C2CC2)cc1F (stereo not drawn) [Example 1.6.24]"
  Readout Type: "IC50"
  Measured: 7
- Compound: "CCc1nc(N2CCCS2(=O)=O)ccc1OCC(=O)N1CCc2nc3sc(C(F)(F)F)nn3c2C1c1sc(C)nc1C (stereo not drawn) [Example 5.4.1]"
  Readout Type: "IC50"
  Measured: 25

---

System Name: human TPH1 (Homo sapiens (Human), UniProt P17752)
Sequence (P17752 whole entry): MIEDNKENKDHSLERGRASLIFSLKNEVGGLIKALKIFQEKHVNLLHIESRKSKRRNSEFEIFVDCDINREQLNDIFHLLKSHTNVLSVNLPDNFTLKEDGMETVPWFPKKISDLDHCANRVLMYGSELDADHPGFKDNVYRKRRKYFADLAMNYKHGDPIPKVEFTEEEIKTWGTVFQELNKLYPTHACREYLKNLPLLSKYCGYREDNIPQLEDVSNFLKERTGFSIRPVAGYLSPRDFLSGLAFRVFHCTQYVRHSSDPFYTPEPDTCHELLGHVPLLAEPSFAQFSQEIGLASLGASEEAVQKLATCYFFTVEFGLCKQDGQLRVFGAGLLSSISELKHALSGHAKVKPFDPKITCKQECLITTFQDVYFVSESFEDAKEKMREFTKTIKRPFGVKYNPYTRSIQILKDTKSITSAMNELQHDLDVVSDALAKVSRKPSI
Experimental Protocol: Biochemical in vitro assay using fluorescence readout (TPH1 inhibition)
Run Conditions: human TPH1, fluorescence readout
pIC50: −log10 of the molar value.
Classes are defined on pIC50 with ranges low interval: < 7; middle interval: ≥ 7 and < 8; high interval: ≥ 8

- Compound: "Cc1nc(C2c3c(nc4sc(C)nn34)CCN2C(=O)COc2ccc(N3CCOCC3)nc2Cl)c(C)o1 (centres unmarked)"
  System Name: "human TPH1 (Homo sapiens (Human), UniProt P17752)"
  Qualitative Label: "middle interval"
- Compound: "CCc1ncccc1OCC(=O)N1CCc2nc3sc(C)nn3c2C1c1cnc(N2CCOCC2)s1 (centres unmarked)"
  System Name: "human TPH1 (Homo sapiens (Human), UniProt P17752)"
  Qualitative Label: "low interval"
- Compound: "CCNC(=O)Nc1nc(C2c3c(nc4sc(C)nn34)CCN2C(=O)COc2ccc(N3CCOCC3)nc2Cl)cs1 (centres unmarked)"
  System Name: "human TPH1 (Homo sapiens (Human), UniProt P17752)"
  Qualitative Label: "middle interval"
- Compound: "CCc1nc(C)c(C2c3c(nc4sc(C)nn34)CCN2C(=O)COc2ccc(NS(C)(=O)=O)nc2Cl)s1 (centres unmarked)"
  System Name: "human TPH1 (Homo sapiens (Human), UniProt P17752)"
  Qualitative Label: "middle interval"
- Compound: "Cc1nn2c3c(nc2s1)CCN(C(=O)COc1ccc(Cl)cc1C)C3c1nc(-c2ccccc2)no1 (centres unmarked)"
  System Name: "human TPH1 (Homo sapiens (Human), UniProt P17752)"
  Qualitative Label: "middle interval"
- Compound: "Cc1nn2c3c(nc2s1)CCN(C(=O)COc1ccc(C(F)(F)F)nc1Cl)C3c1scnc1C (centres unmarked)"
  System Name: "human TPH1 (Homo sapiens (Human), UniProt P17752)"
  Qualitative Label: "middle interval"
- Compound: "Cn1nc(OCC(=O)N2CCc3nc4sccn4c3C2c2cccnc2F)c(C(F)(F)F)c1Cl (centres unmarked)"
  System Name: "human TPH1 (Homo sapiens (Human), UniProt P17752)"
  Qualitative Label: "low interval"
- Compound: "Cc1ccccc1OCC(=O)N1CCc2nc3sccn3c2C1c1cccnc1F (centres unmarked)"
  System Name: "human TPH1 (Homo sapiens (Human), UniProt P17752)"
  Qualitative Label: "low interval"
- Compound: "CNC(=O)c1ccc(C2c3c(nc4sc(C)nn34)CCN2C(=O)COc2ccc(C(=O)N(C)C)nc2Cl)o1 (centres unmarked)"
  System Name: "human TPH1 (Homo sapiens (Human), UniProt P17752)"
  Qualitative Label: "middle interval"
- Compound: "CNC(=O)c1ccc(OCC(=O)N2CCc3nc4sc(C)nn4c3C2c2ccc(Cl)cc2F)c(Cl)n1 (centres unmarked)"
  System Name: "human TPH1 (Homo sapiens (Human), UniProt P17752)"
  Qualitative Label: "high interval"
- Compound: "Cc1nn2c3c(nc2s1)CCN(C(=O)COc1ccc(N2CCOCC2)nc1Cl)C3c1ccc(C2CC2)cc1F (centres unmarked)"
  System Name: "human TPH1 (Homo sapiens (Human), UniProt P17752)"
  Qualitative Label: "high interval"
- Compound: "CN(C)C(=O)c1cc(F)c(C2c3c(nc4sccn34)CCN2C(=O)COc2ccc(NS(C)(=O)=O)cc2Cl)s1 (centres unmarked)"
  System Name: "human TPH1 (Homo sapiens (Human), UniProt P17752)"
  Qualitative Label: "high interval"
- Compound: "Cc1nn2c3c(nc2s1)CCN(C(=O)COc1ccc(N(C)C)nc1Cl)C3c1cnc(N2CCOCC2)s1 (centres unmarked)"
  System Name: "human TPH1 (Homo sapiens (Human), UniProt P17752)"
  Qualitative Label: "low interval"

---

System Name: human TPH1 (Homo sapiens (Human), UniProt P17752)
Experimental Protocol: Biochemical in vitro assay using fluorescence readout (TPH1 inhibition)
Run Conditions: full length human TPH1, 40 μM L-tryptophan, 15° C., 60 minutes, fluorescence at 540 nm; mean if determined several times
Param label: returns Condition met when IC50 < 6 nM, returns Condition not met otherwise, including exact equality.

- Compound: "Cc1nn2c3c(nc2s1)CCN(C(=O)COc1cc(F)cnc1Cl)C3c1cnc(N(C)C)s1 (centres unmarked) [Example 1.22.4]"
  Qualitative Label: "Condition not met"
- Compound: "Cc1nn2c3c(nc2s1)CCN(C(=O)COc1ccc(N2CCOCC2)nc1Cl)C3c1nc(C(N)=O)cs1 (centres unmarked) [Example 1.48.1]"
  Qualitative Label: "Condition met"
- Compound: "Cc1nn2c3c(nc2s1)CCN(C(=O)COc1ccc(N2CCC(F)(F)CC2)nc1Cl)C3c1ccc(Cl)cc1F (centres unmarked) [Example 1.4.32]"
  Qualitative Label: "Condition met"
- Compound: "Cc1nn2c3c(nc2s1)CCN(C(=O)COc1ccc(N2CCOCC2)nc1Cl)C3c1nc(C(=O)N(C)C)co1 (centres unmarked) [Example 1.43.1]"
  Qualitative Label: "Condition not met"
- Compound: "Cc1nn2c3c(nc2s1)CCN(C(=O)COc1ccc(C(=O)N(C)C)nc1Cl)C3c1cc(C(=O)N(C)C)cs1 (centres unmarked) [Example 1.9.5]"
  Qualitative Label: "Condition not met"
- Compound: "Cc1nn2c3c(nc2s1)CCN(C(=O)COc1ccc(N2CCCC2=O)nc1Cl)C3c1ccc(Cl)cc1F (centres unmarked) [Example 1.4.17]"
  Qualitative Label: "Condition met"
- Compound: "Cc1nn2c3c(nc2s1)CCN(C(=O)COc1ccc(N(C)CCO)nc1Cl)C3c1ccc(Cl)cc1F (centres unmarked) [Example 1.4.13]"
  Qualitative Label: "Condition met"
- Compound: "Cc1nn2c3c(nc2s1)CCN(C(=O)COc1ccc(N2C[C@@H](C)C[C@H](C)C2)nc1Cl)C3c1ccc(Cl)cc1F (some centres unmarked) [Example 1.4.20]"
  Qualitative Label: "Condition met"
- Compound: "Cc1nn2c3c(nc2s1)CCN(C(=O)COc1ccc(C(N)=O)cc1Cl)C3c1ccc(Cl)cc1F (centres unmarked) [Example 1.4.26]"
  Qualitative Label: "Condition not met"
- Compound: "Cc1nn2c3c(nc2s1)CCN(C(=O)COc1ccc(C(F)(F)F)cc1Cl)C3c1cc(C(=O)N(C)C)cs1 (centres unmarked) [Example 1.9.3]"
  Qualitative Label: "Condition not met"
- Compound: "Cc1nn2c3c(nc2s1)CCN(C(=O)COc1ccc(NS(C)(=O)=O)nc1Cl)C3c1cnc(N(C)C)s1 (centres unmarked) [Example 1.22.6]"
  Qualitative Label: "Condition not met"
- Compound: "Cc1nn2c3c(nc2s1)CCN(C(=O)COc1ccc(N2CCOCC2)nc1Cl)C3c1cnc(N2CC(F)(F)C2)s1 (centres unmarked) [Example 1.49.1]"
  Qualitative Label: "Condition not met"
- Compound: "Cc1nn2c3c(nc2s1)CCN(C(=O)COc1ccc(N2CC(F)(F)C2)nc1Cl)C3c1cc(C(=O)N(C)C)cs1 (centres unmarked) [Example 1.9.2]"
  Qualitative Label: "Condition not met"
